target: T1, receptor-binding domain (RBD) of the wild-type SARS-CoV-2 spike protein (SARS-CoV-2, UniProt P0DTC2 333-527); assay: ELISA; details: both partners purified
T1 construct: also called SARS-CoV-2 RBD
readout.kind: EC50
Form entry: enter the amount, then its unit.

Request: Query: EC50; subject: mRBD2 (antibody, V domains shown) VH: QVQLQQSGAELARPGASVKLSCKASGYTFISNGISWVKQRTGQGLEWIGEIYPRNGNTYYNEKFKGKATLTADKSSSTAYMELRSLTSEDSAVFFCARDYYYGSFDYWGQGTTLTVSS VL: DIQMTQSPSSLSASLGERVSLTCRASREISGYLTWLQQKPDGTIKRLIYAASTLDSGVPKRFSGSRSGSDYSLTISSLESEDFADYYCLQYASYPWTFGGGTKLEIK
Result: 0.0896 nM

Request: Query: EC50; subject: mRBD25 (antibody, V domains shown) VH: QVQLQQSGPELVKPGASVKISCKASGYAFSNSWMNWVKQRPGKGLEWIGRIYPGDGDTNYNGKFKGKATLTADKSSSTAYMQLSSLTSEDSAVYFCANYYGDYWGQGTTLTVSS VL: QIVLTQSPALMSASPGEKVTMTCSASSSVSYMYWYQQKPRSSPKPWIYLTSNLASGVPARFSGSGSGTSYSLTISSMEAEDAATYYCQQWSSNPYTFGGGTKLEIK
Result: 0.0815 nM

Request: Query: EC50; subject: mRBD6 (antibody, V domains shown) VH: QVQLQQPGAELVKPGASVKVSCKASGYTFTSYWMHWVKQRPGQGLEWIGRIHPSDSDTNYNQKFKGKATLTVDKSSSTAYMQLSSLTSEDSAVYYCAMDWDVDYWGQGTTLTVSS VL: DIVMSQSPSSLAVSAGEKVTMSCKSSQSLLNSRTRKNYLAWYQQKPGQSPKLLIYWASTRESGVPDRFTGSGSGTDFTLTISSVQAEDLAVYYCKQSYNLLTFGAGTKLELK
Result: 0.393 nM
